This collection of values is drawn from the kinase profiling compilation of Christmann-Franck et al. (2016).

target: UniProtKB O75116; assay: radiometric filter-binding kinase assay, Kinase HotSpot; conditions: compound 0.5 µM; ATP 10 µM
Sequence (O75116 whole entry, looked up): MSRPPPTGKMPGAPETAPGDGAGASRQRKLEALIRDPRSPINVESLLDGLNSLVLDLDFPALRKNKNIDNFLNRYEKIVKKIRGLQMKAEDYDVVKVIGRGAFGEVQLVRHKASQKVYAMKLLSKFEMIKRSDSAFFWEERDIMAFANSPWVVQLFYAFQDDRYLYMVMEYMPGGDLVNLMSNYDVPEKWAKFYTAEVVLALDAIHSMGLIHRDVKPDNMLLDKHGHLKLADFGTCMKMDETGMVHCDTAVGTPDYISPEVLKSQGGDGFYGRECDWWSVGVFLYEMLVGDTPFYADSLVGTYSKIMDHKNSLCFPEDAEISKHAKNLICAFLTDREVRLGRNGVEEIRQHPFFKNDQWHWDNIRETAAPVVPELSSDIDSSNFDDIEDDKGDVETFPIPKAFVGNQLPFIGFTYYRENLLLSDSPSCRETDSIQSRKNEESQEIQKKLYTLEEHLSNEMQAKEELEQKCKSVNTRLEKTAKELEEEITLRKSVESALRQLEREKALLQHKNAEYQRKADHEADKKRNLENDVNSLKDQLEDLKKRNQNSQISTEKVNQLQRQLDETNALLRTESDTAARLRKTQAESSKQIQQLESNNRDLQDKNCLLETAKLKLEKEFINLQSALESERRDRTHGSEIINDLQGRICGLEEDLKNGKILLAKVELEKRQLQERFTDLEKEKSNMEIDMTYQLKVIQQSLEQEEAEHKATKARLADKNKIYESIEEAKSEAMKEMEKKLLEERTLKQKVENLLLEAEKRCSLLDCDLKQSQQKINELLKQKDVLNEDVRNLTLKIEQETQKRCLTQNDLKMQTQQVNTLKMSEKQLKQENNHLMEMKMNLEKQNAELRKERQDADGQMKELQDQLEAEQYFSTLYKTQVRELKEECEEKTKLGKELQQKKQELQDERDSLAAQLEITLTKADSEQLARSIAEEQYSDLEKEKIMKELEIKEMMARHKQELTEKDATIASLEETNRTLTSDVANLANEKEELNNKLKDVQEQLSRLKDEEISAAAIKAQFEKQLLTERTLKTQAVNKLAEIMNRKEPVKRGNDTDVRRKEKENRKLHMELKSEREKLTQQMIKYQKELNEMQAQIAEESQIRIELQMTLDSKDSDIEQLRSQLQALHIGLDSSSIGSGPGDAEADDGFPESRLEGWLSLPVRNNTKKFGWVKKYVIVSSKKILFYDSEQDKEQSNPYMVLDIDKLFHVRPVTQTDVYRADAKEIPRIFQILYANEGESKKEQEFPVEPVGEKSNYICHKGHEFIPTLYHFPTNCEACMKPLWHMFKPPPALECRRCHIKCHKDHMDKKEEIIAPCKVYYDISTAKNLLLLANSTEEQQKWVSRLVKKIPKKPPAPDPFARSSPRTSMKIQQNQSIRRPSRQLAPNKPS
Quantity measured: residual activity (%)
One number for each entry, in %.

Past entries and their recorded results:
>>> data_value("CC(C)(C)c1cc(C=C(C#N)C#N)cc(Br)c1O")
95.6
>>> data_value("Cc1cccc(-c2nc(C(C)(C)C)[nH]c2-c2ccc3c(c2)OCO3)n1")
104

# per-item lookup of residual activity; items listed below
1. CS(=O)(=O)CCNCc1ccc(-c2ccc3ncnc(Nc4ccc(OCc5cccc(F)c5)c(Cl)c4)c3c2)o1
2. Ic1cccc(CSc2nnc(-c3ccncc3)o2)c1
3. Cc1cncc2cccc(S(=O)(=O)N3CCCN(C(=O)CN)C[C@H]3C)c12
4. CCCCc1c(-c2ccc(OC)cc2)[nH]c2nccnc12
5. COc1ccc(Cl)cc1NC(=O)Nc1cc(C)nc2ccccc12
6. COc1ccc(S(=O)(=O)N(CCO)c2ccccc2CN(C)C/C=C/c2ccc(Cl)cc2)cc1
7. COc1cc2ncnc(Nc3ccc(Oc4ccccc4)cc3)c2cc1OC
8. O=C1NC(=O)c2c1c1c3ccccc3[nH]c1n1cncc21

Resp:
1. 92.7
2. 89
3. 3.22
4. 97.2
5. 96.7
6. 94.6
7. 99.3
8. 93.2

Req: Which residual activity value belongs to "NC(=O)c1cccc(-c2cc(Nc3ccc(OC(F)(F)F)cc3)ncn2)c1" ?
Resp: 98.5
